// data source = ChEMBL document CHEMBL4340508

System: HT-22
Experiment: Neuroprotective activity against glutamate-induced cytotoxicity in mouse HT22 cells assessed as cell viability at 5 uM measured after 24 hrs by MTT assay (reference value: 30%)
Assay type: functional
Conditions: HT-22, 24 h, read-out: Activity
Binary call on viability at 5 µM with cut-off 70%: strictly below means True, and equality or higher means False.

Incoming: Criterion: viability at 5 µM strictly below 70%. Is it met by Fc1ccc2nc(-c3cccc(N4CCc5ccccc5C4)n3)[nH]c2c1 ?
Outgoing: True

Incoming: Consider COc1ccc2c(c1)CCN(c1cccc(-c3nc4ccc(OC)cc4[nH]3)c1)C2 . Does its viability at 5 µM lie strictly below 70%?
Outgoing: False

Incoming: In the record for COc1ccc2nc(-c3cccc(N4CCc5ccccc5C4)n3)[nH]c2c1 , is viability at 5 µM less than 70%?
Outgoing: False

Incoming: Check if viability at 5 µM falls below 70% for c1cc(-c2nc3ccccc3[nH]2)nc(N2CCc3ccccc3C2)c1 .
Outgoing: False

Incoming: Item Clc1ccc2nc(-c3cccc(N4CCc5ccccc5C4)c3)[nH]c2c1 : viability at 5 µM beneath 70%, strictly?
Outgoing: True

Incoming: viability at 5 µM under 70%? Item: Oc1ccc2nc(-c3cccc(N4CCc5ccccc5C4)n3)[nH]c2c1
Outgoing: False

Incoming: Confirm or reject: viability at 5 µM of FC(F)(F)Oc1ccc2nc(-c3cccc(N4CCc5ccccc5C4)n3)[nH]c2c1 lies strictly below 70%
Outgoing: True

Incoming: API: query returns whether the compound falls strictly under 70% in viability at 5 µM. Query: Nc1cccc2nc(-c3cccc(N4CCc5ccccc5C4)c3)[nH]c12
Outgoing: False

Incoming: Hello, is viability at 5 µM of the following compound strictly smaller than 70%? Fc1cc2[nH]c(-c3cccc(N4CCc5ccccc5C4)c3)nc2cc1Cl
Outgoing: True
